// data source = patent US20050014942A1

Test system: collagen production induced by TGF-β (NHDF cells)
METHOD_DESCRIPTION: Inhibitory effect on collagen production induced by TGF-β, [3H] proline uptake (NHDF cells)
Type: cell-based, human
STATED_CONDITIONS: Homo sapiens, NHDF, 1 μM, TGF-β1 3 ng/ml
Counter-ions that a name gives are not always drawn.
inhibition at 1 µM overview
The response must be a number in % with no trailing unit.

Guide cases for inhibition at 1 µM, answers given:
CCOC(=O)C1CCCCC1NC(=O)c1cnc(N2CCN(C(=O)c3c(-c4ccccc4)n(C)c4ccc(C)cc34)CC2)cn1 (stereo not drawn) [Example 127] : 72
Cc1ccc2c(c1)c(C(=O)N1CCN(c3cnc(C(=O)N(C)[C@@H](Cc4ccccc4)C(=O)O)cn3)CC1)c(-c1ccccc1)n2C [Example 132] : 67

Kindly consider the entry below.
Could you please provide reported inhibition at 1 µM for COc1cc2c(cc1OC)CN(C(=O)/C=C/c1c(-c3ccccc3)n(C)c3nccnc13)CC2 [Example 128, hydrochloride] ? Thanks!
61
